B1: library; a variant is named by its letters at N, in order (parent)
chain: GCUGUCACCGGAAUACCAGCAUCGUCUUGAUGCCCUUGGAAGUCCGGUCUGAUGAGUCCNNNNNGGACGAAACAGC

# Variants of: B1
# Method summary: normalized RNA/DNA level with ligand (relative to sTRSVctl = 100) (log10 (% of sTRSVctl)); higher = less ribozyme self-cleavage, higher mRNA level
# Particulars: ligand concentration (+) RNA-Seq: 5 mM, HEK293T, reporter: mCherry (pCS4076), ligand present: yes
Catalogue of normalized RNA/DNA level with ligand (log10) values
Metric: normalized RNA/DNA level with ligand (log10)

>>> test_result("ACAAC")
1.97
>>> test_result("AAGUA")
2
>>> test_result("CCCUC")
2.03
>>> test_result("CACUC")
2
>>> test_result("ACGGC")
1.97
>>> test_result("CUGAC")
1.99
>>> test_result("AAGCA")
2.03
>>> test_result("ACGUU")
2.05
>>> test_result("AUCGU")
2.03
>>> test_result("UAAAG")
2.04
>>> test_result("UUCUC")
1.99
>>> test_result("AUUUU")
2.02
>>> test_result("UCCAU")
2.01
>>> test_result("AACGU")
1.97
>>> test_result("ACUGA")
1.96
>>> test_result("AGAUU")
1.99
>>> test_result("CCGUA")
2
>>> test_result("UACUU")
2.01
>>> test_result("AUUAU")
2.01
>>> test_result("CAGAC")
2.04
>>> test_result("ACGUG")
1.99
>>> test_result("AUGAC")
1.91
>>> test_result("UGUGU")
1.88
>>> test_result("CUCGA")
2.04
>>> test_result("GACUU")
2.1
>>> test_result("ACUGU")
2.03
>>> test_result("AUCUU")
2.03
>>> test_result("CCUAC")
2.01
>>> test_result("UUUGC")
2.05
>>> test_result("CGUAU")
2
>>> test_result("AGUUA")
1.87
>>> test_result("UAGCU")
2.01
>>> test_result("GAACG")
1.89
>>> test_result("UUUUC")
2.01
>>> test_result("GCCAU")
1.99
>>> test_result("GCGAU")
1.96
>>> test_result("CCGGU")
1.97
